Values compiled from the supplement of paper PMC10567573.

Recorded measurements of protein stability index, one per entry
B1: DFFB (parent)
chain: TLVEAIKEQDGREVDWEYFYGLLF

- Variants of: B1
- method-summary: protein stability index of a GFP-peptide fusion (GPS, HEK-293T) (PSI 1-6); higher = more stable;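 further: lentivirally expressed fusions sorted by FACS into six bins by GFP to DsRed ratio, PSI derived from sequencing read proportions per bin multiplied by bin number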
- measurement-context: c terminus: a fixed tail appended
Give only the figure.

Below, 8 variants whose answers are already recorded.
TLVEAIKEQDGREVDWMYFYGLLF: 1.78
TLAEAIKEQDGREVDWEYFYGLLF: 1.95
TSVEAIKEQDGREVDWEYFYGLLF: 3.15
TLVEAIKEQDGREVTWEYFYGLLF: 2.08
TLVEAIKEQDGCEVDWEYFYGLLF: 1.91
QLVEAIKEQDGREVDWEYFYGLLF: 2.37
TLTEAIKEQDGREVDWEYFYGLLF: 2.53
TLVEAIKEQDGRRVDWEYFYGLLF: 1.81

// lookup protein stability index for TLVEAIKKQDGREVDWEYFYGLLF
1.83

So what's the measured protein stability index for this one? TLVEAIKEQDGREVDWTYFYGLLF
2.42

I am curious: what protein stability index value has been reported for TLVEAIKEQDGREVDWEYFYMLLF ?
2.26

Which value of protein stability index has been reported for TLVDAIKEQDGREVDWEYFYGLLF in the records?
1.68

Given the variant RLVEAIKEQDGREVDWEYFYGLLF , what is its reported protein stability index?
1.59

Suppose we examine the variant TLVEAIKEQDGREVDWEYFYGFLF ; what protein stability index value has been reported?
1.52

protein stability index for TLVEAIKEQDGREVDWEYFYELLF ?
1.93

What value of protein stability index has been recorded for this entry: TLVEAIKEHDGREVDWEYFYGLLF
2.33

Could you tell me which protein stability index is on file for TLVEAIKEQDGREVDWEYFYGLEF ?
2.19
